# assayExplanation: Quantitative High-Throughput drug screen in 47 multiple myeloma cell lines against the NCATS MIPE library collection: OPM2_DSMZ cell viability assay (AID 1919872); note: nearly all actives have a fitted effect of over 30% in size
# experimentalContext: OPM2 myeloma viability, CellTiter-Glo ATP luminescence, 48 h; series mostly up to 45.8 µM
Inconclusive results are not listed. Activity calls are given as the source filed them. Calls come from the whole dose curve; as a rule, active = well fitted cell-killing curve with a large enough effect; inconclusive = small, poorly fitted or top-dose-only effect, or effect the other way; inactive = no such curve, though single readings can be large or run the other way.
Hi there, use one of these labels in your reply, thanks! t = active, f = inactive

Cc1nn(Cc2ccccc2Cl)c(C)c1CN(C)CC(O)COc1ccc(Cl)cc1 (centres undefined)
f
O=C(NCCCCN1CCOCC1)c1cc2ccccc2o1
f
CC(C)C[C@@H](N)[C@H](O)C(=O)N[C@H](C(=O)N[C@H](C(=O)N[C@@H](CC(=O)O)C(=O)O)C(C)C)C(C)C
f

[Q] # lookup: test call for Cc1ccc(S(=O)(=O)OCC(=O)Nc2ccc(C(=O)O)c(O)c2)cc1
[A] f

[Q] # lookup: test call for COc1ccc(Cn2ccc3ccc(C(=O)NO)cc32)cc1
[A] f

[Q] # lookup: test call for CCCCCCCCCCCCCCCC(=O)O[C@H]1[C@@H](O)[C@@H](O)[C@@H]([C@H](NC(=O)[C@@H]2C[C@@H](CCC)CN2C)[C@H](C)Cl)O[C@@H]1SC
[A] f

[Q] # lookup: test call for NC(=O)c1noc([C@H](CCCC2CCCCC2)CC(=O)NO)n1
[A] t

[Q] # lookup: test call for NCC1CCC(C(=O)O)CC1 (centres undefined)
[A] f

[Q] # lookup: test call for Cc1c(C(=O)Nc2ccc(N3C[C@@H](C)O[C@@H](C)C3)nc2)cccc1-c1ccc(OC(F)(F)F)cc1
[A] t

These entries and their values trace back to PubChem BioAssay (NCATS).
